target: NDM-1 (Klebsiella pneumoniae, UniProt C7C422); test: biochemical; type: biochemical; details: NDM-1 enzyme, CCF2-FA fluorescence assay; read-out: NDM-1 IC50
Sequence (C7C422 whole entry, looked up, species assumed): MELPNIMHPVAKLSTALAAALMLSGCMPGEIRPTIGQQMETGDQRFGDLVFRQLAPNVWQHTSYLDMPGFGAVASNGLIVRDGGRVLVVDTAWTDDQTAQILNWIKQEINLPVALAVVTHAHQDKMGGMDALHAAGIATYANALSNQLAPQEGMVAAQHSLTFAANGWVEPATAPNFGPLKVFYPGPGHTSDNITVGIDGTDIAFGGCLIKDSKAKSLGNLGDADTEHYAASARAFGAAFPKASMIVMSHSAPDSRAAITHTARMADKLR
Hi there, I'd appreciate the recorded IC50 for every entry that follows.
Answers are plain numbers, in nM.

See these solved cases before continuing.
# structure, test-target, result-unit, readout-number
records = [
    ("N=CN1CCC(N)(c2ccc(-c3ccc(C(F)(F)F)c(S(N)(=O)=O)c3-c3nn[nH]n3)cc2)CC1", "NDM-1 (Klebsiella pneumoniae, UniProt C7C422)", "nM", 7.95),
    ("Nc1ncc(-c2cccc(S(N)(=O)=O)c2-c2nnn[nH]2)cn1", "NDM-1 (Klebsiella pneumoniae, UniProt C7C422)", "nM", 8.2),
    ("NCc1ccc(-c2ccc(C(F)(F)F)c(S(N)(=O)=O)c2-c2nn[nH]n2)cc1", "NDM-1 (Klebsiella pneumoniae, UniProt C7C422)", "nM", 11.9),
    ("Cc1ccc(-c2cc(-c3ccc(C(N)=O)cc3)cc(S(N)(=O)=O)c2-c2nn[nH]n2)cc1", "NDM-1 (Klebsiella pneumoniae, UniProt C7C422)", "nM", 0.637),
]

Entry NS(=O)(=O)c1cccc(-c2ccc(CNC(CO)CO)cc2)c1-c1nnn[nH]1 : IC50 on NDM-1 (Klebsiella pneumoniae, UniProt C7C422) = 16
